Data credit: ChEMBL document CHEMBL1909493

Listing: pIC50 of selected molecules
target-under-test: Phosphatidylinositol 4,5-bisphosphate 3-kinase catalytic subunit beta isoform (Homo sapiens, UniProt P42338)
Sequence (P42338 whole entry, canonical isoform): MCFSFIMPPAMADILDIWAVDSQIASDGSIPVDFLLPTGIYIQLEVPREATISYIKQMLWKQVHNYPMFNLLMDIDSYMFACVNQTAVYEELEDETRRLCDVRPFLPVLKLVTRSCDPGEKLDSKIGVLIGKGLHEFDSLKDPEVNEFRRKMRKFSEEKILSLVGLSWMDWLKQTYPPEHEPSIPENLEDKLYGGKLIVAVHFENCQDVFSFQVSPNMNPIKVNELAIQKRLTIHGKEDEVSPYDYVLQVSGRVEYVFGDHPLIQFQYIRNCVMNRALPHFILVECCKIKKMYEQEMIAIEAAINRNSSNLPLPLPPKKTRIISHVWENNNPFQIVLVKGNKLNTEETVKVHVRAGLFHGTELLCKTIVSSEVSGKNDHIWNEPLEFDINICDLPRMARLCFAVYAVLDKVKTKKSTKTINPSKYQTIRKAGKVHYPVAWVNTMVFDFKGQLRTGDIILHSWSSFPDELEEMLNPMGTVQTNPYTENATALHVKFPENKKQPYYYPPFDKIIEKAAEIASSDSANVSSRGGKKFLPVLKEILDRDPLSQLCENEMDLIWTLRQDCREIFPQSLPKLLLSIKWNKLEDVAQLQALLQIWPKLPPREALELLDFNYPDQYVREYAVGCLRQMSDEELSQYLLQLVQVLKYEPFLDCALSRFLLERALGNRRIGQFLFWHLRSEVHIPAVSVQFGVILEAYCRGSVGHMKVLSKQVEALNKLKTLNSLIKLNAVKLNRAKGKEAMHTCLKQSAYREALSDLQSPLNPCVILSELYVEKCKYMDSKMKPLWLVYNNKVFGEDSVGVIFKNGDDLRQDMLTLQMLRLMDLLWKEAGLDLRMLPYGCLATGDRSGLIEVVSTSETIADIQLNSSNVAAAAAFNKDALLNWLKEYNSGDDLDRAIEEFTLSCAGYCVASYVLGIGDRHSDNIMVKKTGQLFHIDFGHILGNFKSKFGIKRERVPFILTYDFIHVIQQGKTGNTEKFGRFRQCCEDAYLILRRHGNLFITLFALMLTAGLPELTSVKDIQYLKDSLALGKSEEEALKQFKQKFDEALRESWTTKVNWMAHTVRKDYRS
measurement-protocol: Inhibition of human His-tagged PI3K p110beta after 2 hrs by HTRF assay
pIC50: −log10 of the molar value.
readout-type: pIC50

{"chemical-string": "COc1ccc2c(nc(C(F)F)n2-c2nc(N3CCOCC3)nc(N3CCOCC3)n2)c1O", "readout-type": "pIC50", "value-comparator": "=", "reported-result": 7.36}
{"chemical-string": "Oc1cccc2c1nc(C(F)F)n2-c1nc(N2CCOCC2)nc(N2CCOCC2)n1", "readout-type": "pIC50", "value-comparator": "=", "reported-result": 8.46}
{"chemical-string": "FC(F)Oc1cccc2c1nc(C(F)F)n2-c1nc(N2CCOCC2)nc(N2CCOCC2)n1", "readout-type": "pIC50", "value-comparator": "<", "reported-result": 5.60}

---

measurement-protocol: Aqueous solubility of the compound in water after 15 mins by HPLC analysis
condition-context: aqueous medium
Listing: solubility at […] of selected compounds
readout-type: solubility at […] (µg/mL)

{"chemical-string": "COc1cccc2c1nc(C(F)F)n2-c1nc(N2CCOCC2)nc(N2CCOCC2)n1", "reported-result": 0.08}
{"chemical-string": "CS(=O)(=O)O.Cn1c(=O)n(-c2ccc(C(C)(C)C#N)cc2)c2c3cc(-c4cnc5ccccc5c4)ccc3ncc21", "reported-result": 11.3}
{"chemical-string": "FC(F)c1nc2ccccc2n1-c1nc(N2CCOCC2)nc(N2CCOCC2)n1", "reported-result": 0.61}
{"chemical-string": "Oc1cccc2c1nc(C(F)F)n2-c1nc(N2CCOCC2)nc(N2CCOCC2)n1", "reported-result": 0.32}
{"chemical-string": "COc1cc(N)cc2c1nc(C(F)F)n2-c1nc(N2CCOCC2)nc(N2CCOCC2)n1.CS(=O)(=O)O", "reported-result": 4.2}

---

Listing: pIC50 of selected molecules
measurement-protocol: cells
condition-context: Homo sapiens, NZB5
pIC50: −log10 of the molar value.

{"chemical-string": "N#Cc1cccc2c1nc(C(F)F)n2-c1nc(N2CCOCC2)nc(N2CCOCC2)n1", "value-comparator": "<", "pIC50": 4.70}
{"chemical-string": "COc1cncc2c1nc(C(F)F)n2-c1nc(N2CCOCC2)nc(N2CCOCC2)n1", "value-comparator": "=", "pIC50": 5.25}
{"chemical-string": "FC(F)c1nc2c3c(ccc2n1-c1nc(N2CCOCC2)nc(N2CCOCC2)n1)OCO3", "value-comparator": "=", "pIC50": 6.89}
{"chemical-string": "CN(C)C(=O)c1cccc2c1nc(C(F)F)n2-c1nc(N2CCOCC2)nc(N2CCOCC2)n1", "value-comparator": "=", "pIC50": 6.14}
{"chemical-string": "CS(=O)(=O)Oc1cccc2c1nc(C(F)F)n2-c1nc(N2CCOCC2)nc(N2CCOCC2)n1", "value-comparator": "=", "pIC50": 6.77}

---

Listing: IC50 of selected compounds
measurement-protocol: cells
condition-context: Homo sapiens, NZB5

{"chemical-string": "FC(F)Oc1cccc2c1nc(C(F)F)n2-c1nc(N2CCOCC2)nc(N2CCOCC2)n1", "IC50, nM": 47}
{"chemical-string": "CS(=O)(=O)Cc1nc2ccccc2n1-c1nc(N2CCOCC2)nc(N2CCOCC2)n1", "IC50, nM": 250}
{"chemical-string": "CCCCOc1cccc2c1nc(C(F)F)n2-c1nc(N2CCOCC2)nc(N2CCOCC2)n1", "IC50, nM": 230}
{"chemical-string": "COc1ccc2c(nc(C(F)F)n2-c2nc(N3CCOCC3)nc(N3CCOCC3)n2)c1O", "IC50, nM": 334}
{"chemical-string": "COc1cccc2c1nc(C(F)F)n2-c1nc(N2CCOCC2)cc(N2CCOCC2)n1", "IC50, nM": 60}
